Test system: RPMI-8226 leukemia
Experiment: NCI tumour cell line growth inhibition, 48 h
property_label: TGI

- molecule: "C=C1C(=O)OC2C1CC1OC2C(C)CCC/C(C)=C\\CCC1(C)O (stereo not drawn)"
  property_label: "TGI"
  value_measured: "24.3 µM"
- molecule: "C1CCN2CC34CC(CC5CCCN(C6CCCC3N6)C54)C2C1 (stereo not drawn)"
  property_label: "TGI"
  value_measured: "> 100 µM"
- molecule: "CC(=O)Oc1ccc(-c2c(OC(C)=O)c(OC(C)=O)c(-c3ccc(OC(C)=O)c(OC(C)=O)c3)c(OC(C)=O)c2OC(C)=O)cc1"
  property_label: "TGI"
  value_measured: "35.4 µM"
- molecule: "CCn1c2ccccc2c2cc(NC(=O)c3c(C)[nH]c(=O)[nH]c3=S)ccc21"
  property_label: "TGI"
  value_measured: "> 100 µM"
- molecule: "COc1cc([N+](=O)[O-])c2ncccc2c1O"
  property_label: "TGI"
  value_measured: "> 100 µM"
- molecule: "CC(C)(CN1CCCCC1)C(=O)CC(SCCS(=O)(=O)O)c1ccc(Cl)c(Cl)c1 (stereo not drawn)"
  property_label: "TGI"
  value_measured: "7.03 µM"
- molecule: "Cc1cn(C2CC(O)C(Cn3cc(Cn4nc(Br)c(=O)[nH]c4=O)nn3)O2)c(=O)[nH]c1=O (stereo not drawn)"
  property_label: "TGI"
  value_measured: "> 100 µM"
- molecule: "O=C1CCCC2COc3ccc(O)c1c32 (stereo not drawn)"
  property_label: "TGI"
  value_measured: "> 100 µM"

Reported TGI ( COc1ccc(C2=C(N)c3ccccc3C2=O)cc1 ) = > 100 µM

Reported TGI ( C/C(=N\N=C(N)N)c1sc(-c2nc(C)c(/C(C)=N/N=C(N)N)s2)nc1C ) = > 100 µM

Reported TGI ( O=[N+]([O-])C(=C(c1ccccc1)c1ccccc1)[N+](=O)[O-] ) = 6.43 µM

Reported TGI ( Brc1ccc2[nH]cc(-c3nc(-c4c[nH]c5ccncc45)cs3)c2c1 ) = 5.23 µM

Reported TGI ( CC(=O)N/N=C1\NN(C(C)=O)C2(S1)C(=O)Nc1ccccc12 (stereo not drawn) ) = > 100 µM

Reported TGI ( CC(C)(C)c1ccc(C(O)(c2ccc(C(C)(C)C)cc2)c2ccc(C(C)(C)C)cc2)cc1 ) = > 100 µM

Reported TGI ( C[Si](C)(C)[C@@]1([Se]c2ccccc2)CC[C@@H]1C(=O)c1ccccc1 ) = 53 µM

Reported TGI ( CC[N+]1(C)CCC(O)(/C=C/c2ccc(Cl)c(Cl)c2)C(C(=O)/C=C/c2ccc(Cl)c(Cl)c2)C1 (stereo not drawn) ) = 5.7 µM

Reported TGI ( O/N=C1/CCCCC1NO (stereo not drawn) ) = > 100 µM

Reported TGI ( CC(=O)Nc1oc(C)nc1C#N ) = > 100 µM

---

Items are presented alongside their recorded GI50.
Test system: BT-549 breast
Assay: NCI tumour cell line growth inhibition, 48 h

See these solved cases before continuing.
- compound: "COCCOCCOCCOCCOc1ccc2c(c1)C(=O)c1nc3ncccc3c(=O)n1-2"
  GI50: "1.1 µM"
- compound: "COc1cc(Nc2ncc(-c3ccccc3)o2)cc(OC)c1OC"
  GI50: "3.24 µM"

Entry CCN(CC)c1ccc(/C=N\NC(=O)c2cccc(Nc3ccnc(C(F)(F)F)c3)c2)c(O)c1 ; assay system BT-549 breast; GI50 recorded at 0.427 µM

Entry Cc1ccc(Nc2ccnc(Nc3cccc(C(N)=O)c3)n2)cc1O ; assay system BT-549 breast; GI50 recorded at 6.4 µM

Entry O=c1c2c(=NCCCN3CCCC3)cc3c(=O)n(CCCN4CCCC4)c(=O)c4c(NCCCN5CCCC5)cc(c(O)n1CCCN1CCCC1)c2c4-3 ; assay system BT-549 breast; GI50 recorded at 14.1 µM

Entry COCCn1cc(-c2csc(-c3c[nH]c4ccc(F)cc34)n2)c2cccnc21 ; assay system BT-549 breast; GI50 recorded at 4.26 µM

Entry CCOc1ccc(N2C(N)=NC(N)=NC2(C)C)cc1 ; assay system BT-549 breast; GI50 recorded at 84.3 µM

Entry Cc1cc(I)cc(CN(C)CCCCN2CCCC2)c1O ; assay system BT-549 breast; GI50 recorded at 13.6 µM

Entry Cn1cc(/C=C2\C(=O)Nc3cccnc32)c2ccccc21 ; assay system BT-549 breast; GI50 recorded at > 25 µM

Entry O=C(O)C(O)C(O)C1[O][Sb][O]C1CO (stereo not drawn) ; assay system BT-549 breast; GI50 recorded at > 100 µM

Entry C=C(C)[C@@H]1CC[C@]2(C#N)CC[C@]3(C)[C@H](CC[C@@H]4[C@@]5(C)CCCNC(C)(C)[C@@H]5CC[C@]43C)[C@@H]12 ; assay system BT-549 breast; GI50 recorded at 1.75 µM

Entry COCCOC(=O)CCn1cc(F)c(=O)[nH]c1=O ; assay system BT-549 breast; GI50 recorded at 16.2 µg/mL

Entry ClCc1ccc(Cn2cnc3ncnc(Cl)c32)cc1 ; assay system BT-549 breast; GI50 recorded at 3.75 µM
